tested on: S. aureus UBMS 88-4 (Sensitive); assay: MIC, agar dilution; format: cell-based; settings: S. aureus UBMS 88-4 (Sensitive)
reported.endpoint: MIC

Name the recorded MIC for CC(=O)Nc1nc(C)c(S(=O)(=O)Nc2cc(N(C)C)c3c(c2O)C(=O)C2=C(O)C4(O)C(=O)C(C(N)=O)=C(O)C(N(C)C)C4CC2C3)s1 (stereo not shown) . 4 µg/mL

Name the recorded MIC for CN(C)c1cc(N(C)C)c2c(c1O)C(=O)C1=C(O)C3(O)C(=O)C(C(N)=O)=C(O)C(N(C)C)C3CC1C2 (stereo not shown) . 0.03 µg/mL

Name the recorded MIC for Cc1ccccc1C(=O)Nc1cc(N(C)C)c2c(c1O)C(=O)C1=C(O)C3(O)C(=O)C(C(N)=O)=C(O)C(N(C)C)C3CC1C2 (stereo not shown) . 2 µg/mL

Name the recorded MIC for CN(C)c1cc(NS(=O)(=O)c2cccs2)c(O)c2c1CC1CC3C(N(C)C)C(O)=C(C(N)=O)C(=O)C3(O)C(O)=C1C2=O (stereo not shown) . 0.5 µg/mL
